From: a melting point compilation (Tetko et al.)

measured_property: melting point

molecule=BrCc1cccc(-n2cccc2)c1 value_measured="54 to 55 °C"
molecule=N#Cc1cccc(C(=O)Cl)c1 value_measured="38 to 44 °C"
molecule=Brc1cccc2cccnc12 value_measured="58 to 59 °C"
molecule=C=CCNC(=S)Nc1sc2c(c1C(=O)OCC)CCCC2 value_measured="151 to 152 °C"
molecule="CC(C)(C)OC(=O)NN1CCCC1C(=O)O (stereo unspecified)" value_measured="134 to 137 °C"
molecule=Cc1ccc(O)c(C)n1 value_measured="210 to 212 °C"

====

# melting point per entry
measured_property: melting point

compound="CC(=O)OC1CCC2(C)C(CCC3C2CCC2(C)C3CCC(=O)C2(C)OC(C)=O)C1 (stereo not drawn)" value_measured="195 to 207 °C"
compound=CCOC(=O)c1cn2ccsc2n1 value_measured="87 to 91 °C"
compound=O=C(O)c1ccc(C(F)(F)F)nc1Cl value_measured="120 to 122 °C"
